All figures here come from patent US20250163104A1.

Biological target: human PD-1 / PD-L1-Ig binding on Jurkat cell line over-expressing human PD-1 (Jurkat-PD-1) (Homo sapiens)
Construct: expressed in transfected cells; host or cells: Jurkat
Sequence (Q15116 25-288): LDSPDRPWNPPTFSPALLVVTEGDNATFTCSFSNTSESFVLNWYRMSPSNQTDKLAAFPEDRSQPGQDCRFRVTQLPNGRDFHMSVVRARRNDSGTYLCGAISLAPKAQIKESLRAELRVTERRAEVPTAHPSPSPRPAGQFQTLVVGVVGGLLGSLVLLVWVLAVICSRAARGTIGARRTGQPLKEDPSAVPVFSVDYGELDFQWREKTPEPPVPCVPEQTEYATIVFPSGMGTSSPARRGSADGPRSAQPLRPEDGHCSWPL
Experiment: Jurkat-PD-1 Cell Binding High-Content Screening Assay (CBA)
Type: cell-based
Details: Jurkat-PD-1 cells, PE-labeled PD-L1-Ig 20 nM final; read-out: Jurkat HPD1_PDL1 IC50
pIC50: −log10 of the molar value.
Here, each record is paired with measured pIC50 data.

{"MOLECULE": "CCCC[C@H]1NC(=O)[C@H](CCCN)NC(=O)[C@H](CCCNC(N)=O)NC(=O)[C@H](Cc2ccc(-c3ccccc3)cc2)NC(=O)[C@H](C(C)C)NC(=O)[C@H](Cc2c[nH]c3ccccc23)NC(=O)[C@H](CC(=O)O)NC(=O)[C@H](Cc2ccncc2)NC(=O)[C@H](CN)NC(=O)CSC[C@@H](C(=O)N[C@@H](C)C(N)=O)NC(=O)[C@H]([C@@H](C)O)NC(=O)[C@H](C(C)C)NC(=O)[C@H](CC2CCCCC2)NC(=O)[C@H](CCN)NC1=O [Compound 1703]", "pIC50": 7.60}
{"MOLECULE": "CC(C)C[C@H]1NC(=O)[C@H](CCCN)NC(=O)[C@H](CCC(=O)O)NC(=O)[C@H](Cc2ccc(-c3ccccc3)cc2)NC(=O)[C@H](C(C)C)NC(=O)[C@H](Cc2cccc(C(F)(F)F)c2)NC(=O)[C@H](CC(=O)O)NC(=O)[C@H](Cc2ccc(O)cc2)NC(=O)[C@H](Cc2ccncc2)NC(=O)CSC[C@@H](C(=O)N[C@@H](C)C(N)=O)NC(=O)[C@H]([C@@H](C)O)NC(=O)[C@H](C(C)C)NC(=O)[C@H](CC2CCCCC2)NC(=O)[C@H](CCN)NC1=O [Compound 1464]", "pIC50": 7.59}
